# Experimental System: D(2) dopamine receptor (Homo sapiens) (UniProt P14416)
# Sequence (P14416 whole entry, looked up): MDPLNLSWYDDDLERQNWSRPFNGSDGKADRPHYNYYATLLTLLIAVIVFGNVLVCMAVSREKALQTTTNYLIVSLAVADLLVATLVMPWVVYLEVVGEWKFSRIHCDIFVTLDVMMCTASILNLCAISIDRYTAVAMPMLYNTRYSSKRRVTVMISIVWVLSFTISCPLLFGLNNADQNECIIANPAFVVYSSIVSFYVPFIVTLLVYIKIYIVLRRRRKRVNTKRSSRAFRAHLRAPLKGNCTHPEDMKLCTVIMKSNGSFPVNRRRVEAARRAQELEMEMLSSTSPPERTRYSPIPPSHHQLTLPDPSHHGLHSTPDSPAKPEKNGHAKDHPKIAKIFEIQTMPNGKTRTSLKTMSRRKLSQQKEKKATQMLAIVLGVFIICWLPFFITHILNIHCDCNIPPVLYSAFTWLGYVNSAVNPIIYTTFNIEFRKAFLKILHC
# Assay Text: Dopamine D2 receptor (DRD2) small molecule agonists, cell-based qHTS assay (AID 1963594); note: nearly all actives have a fitted effect of over 35% in size
# Condition Summary: HEK293-DRD2 cAMP HTRF, agonist mode, 30 min; series mostly up to 92.4 µM
Results filed as inconclusive are left out. The source made the active and inactive calls. Calls come from the whole dose curve.
Bench note: report the call from active, inactive

Use the examples below as a reference point.
{"columns": ["Molecule", "Experimental System", "Class"],
 "data": [
  ["O=[N+]([O-])c1ccc2c3c(cccc13)CC2", "D(2) dopamine receptor (Homo sapiens) (UniProt P14416)", "inactive"],
  ["Cc1nc(N(C)C)nc(OC(=O)N(C)C)c1C", "D(2) dopamine receptor (Homo sapiens) (UniProt P14416)", "inactive"],
  ["O=[N+]([O-])c1ccc2ccc3cccc4ccc1c2c34", "D(2) dopamine receptor (Homo sapiens) (UniProt P14416)", "inactive"],
  ["CCC(OC(C)=O)C(CC(C)NC)(c1ccccc1)c1ccccc1 (stereo unspecified)", "D(2) dopamine receptor (Homo sapiens) (UniProt P14416)", "inactive"],
  ["Nc1cc(Cl)ccc1Cl", "D(2) dopamine receptor (Homo sapiens) (UniProt P14416)", "inactive"]
]}

Lookup: For this molecule, state the assay outcome: O=C(O)c1cccc(Cl)c1
Found: inactive

Lookup: Field entry: ClC=C(Cl)Cl
Found: inactive

Lookup: Field entry: CCN(C(C)=O)c1cccc(-c2ccnc3c(C#N)cnn23)c1
Found: inactive

Lookup: Field entry: O=S1(=O)OCC2C(CO1)C1(Cl)C(Cl)=C(Cl)C2(Cl)C1(Cl)Cl (stereo unspecified)
Found: inactive

Lookup: Field entry: COP(N)(=S)Oc1ccccc1C(=O)OC(C)C (stereo unspecified)
Found: inactive

Lookup: Field entry: Cc1cc(C)nc(Nc2ccccc2)n1
Found: inactive
